target: NLRP3 inflammasome (Homo sapiens, UniProt Q96P20); assay: IL-1β assay in IFN-γ-differentiated, LPS-primed, ATP-activated THP-1 cells (ELISA); conditions: 50 ng/mL LPS priming, 2.5 mM ATP activation, 2 hours
Sequence (Q96P20 whole entry): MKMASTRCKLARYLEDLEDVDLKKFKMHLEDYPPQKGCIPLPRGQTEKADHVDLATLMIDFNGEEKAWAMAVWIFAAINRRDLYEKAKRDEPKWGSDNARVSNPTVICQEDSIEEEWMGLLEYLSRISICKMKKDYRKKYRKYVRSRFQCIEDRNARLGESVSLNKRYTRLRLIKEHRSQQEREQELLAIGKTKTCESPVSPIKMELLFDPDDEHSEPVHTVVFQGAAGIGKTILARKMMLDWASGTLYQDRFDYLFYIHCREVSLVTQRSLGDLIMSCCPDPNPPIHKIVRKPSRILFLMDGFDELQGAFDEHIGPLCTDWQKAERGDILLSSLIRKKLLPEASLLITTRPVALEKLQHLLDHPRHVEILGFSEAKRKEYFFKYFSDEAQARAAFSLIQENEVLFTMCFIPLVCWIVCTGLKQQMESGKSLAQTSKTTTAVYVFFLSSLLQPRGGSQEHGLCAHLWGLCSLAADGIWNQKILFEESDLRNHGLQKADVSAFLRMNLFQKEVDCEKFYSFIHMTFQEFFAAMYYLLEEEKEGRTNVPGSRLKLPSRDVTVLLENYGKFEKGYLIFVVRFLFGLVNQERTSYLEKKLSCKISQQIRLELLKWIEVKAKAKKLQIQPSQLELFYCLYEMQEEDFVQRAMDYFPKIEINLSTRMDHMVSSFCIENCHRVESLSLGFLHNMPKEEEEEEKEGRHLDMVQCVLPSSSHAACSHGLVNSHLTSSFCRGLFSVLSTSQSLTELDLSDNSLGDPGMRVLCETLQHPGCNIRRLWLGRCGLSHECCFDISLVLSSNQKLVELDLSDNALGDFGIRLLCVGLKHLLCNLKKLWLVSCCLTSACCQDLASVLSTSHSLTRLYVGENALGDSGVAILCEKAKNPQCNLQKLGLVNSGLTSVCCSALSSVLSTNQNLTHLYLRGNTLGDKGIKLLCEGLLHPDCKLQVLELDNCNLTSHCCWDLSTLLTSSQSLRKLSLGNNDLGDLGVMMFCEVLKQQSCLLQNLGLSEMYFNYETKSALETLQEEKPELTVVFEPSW
pIC50: −log10 of the molar value.
READOUT KIND: pIC50

INSERT INTO results (molecule, readout_kind, assay_result) VALUES
  ('COc1ccc(-c2nnc(NC3CCN(C)C3)c3ccccc23)cc1 (stereo not drawn)', 'pIC50', 5.59);

1: CN1CCC[C@@H](Nc2nnc(-c3ccc(C(F)(F)F)cc3O)c3ccncc23)C1
2: CN1CCCC(Nc2nnc(-c3ccc(Cl)cc3)c3c2CCN(S(C)(=O)=O)C3)C1 (stereo not drawn)
Ask | Higher pIC50: 1 or 2 ? Your answer should be the label of the entry you select.
Reply | 1
(1: 8.52, 2: 5.48)

###

Target: NLRP3 inflammasome (Homo sapiens, UniProt Q96P20)
Assay: IL-1β assay in IFN-γ-differentiated, LPS-primed, ATP-activated THP-1 cells (ELISA)
Assay type: cell-based
Conditions: 50 ng/mL LPS priming, 2.5 mM ATP activation, 2 hours
Method: Monocytic THP-1 cells (ATCC: TIB-202) are maintained in accordance with the provider's instructions in RPMI media (Life Technologies, Cat #A10491-01); RPMI is supplemented with 10% heat inactivated fetal bovine serum (Hyclone Cat #SH30396.03). […] At the end of the incubation period, 40 μL supernatant is removed, and […] are monitored using an ELISA (Human […], R&D systems, Cat #DY201) in accordance with the manufacturer's instructions. […]
pIC50: −log10 of the molar value.
READOUT KIND: pIC50

INSERT INTO assay_data (molecule, readout_kind, assay_result) VALUES
  ('CN1CCCC(Nc2nnc(-c3ccc(F)cc3)c3ccccc23)C1 (stereo not drawn)', 'pIC50', 6.03);

P: CN1C[C@H](F)C[C@@H](Nc2nnc(-c3ccc(Cl)cc3F)c3c2CCOC3)C1
Q: COc1cc2c(NC3CCCN(C)C3)nnc(-c3ccc(Cl)cc3)c2cn1 (stereo not drawn)
Ask | Could you check which of P and Q has a smaller value for pIC50? Label of pick, please.
Reply | P
(P: 5.94, Q: 7.02)

###

molecular target: NLRP3 inflammasome (Homo sapiens, UniProt Q96P20); test: IL-1β assay in IFN-γ-differentiated, LPS-primed, ATP-activated THP-1 cells (ELISA); details: 50 ng/mL LPS priming, 2.5 mM ATP activation, 2 hours
READOUT KIND: IC50 (nM)

Here are 5 compounds together with their reported answers.
INSERT INTO results (compound, readout_kind, units_of_measure, assay_result) VALUES
  ('COc1ccc(-c2nnc(N[C@@H]3CCCN(CCF)C3)c3ccccc23)c(F)c1', 'IC50', 'nM', 134),
  ('CN1C[C@H](F)C[C@@H](Nc2nnc(-c3ccccc3O)c3ccncc23)C1 (relative stereo)', 'IC50', 'nM', 20),
  ('COc1cc2c(-c3ccc(Cl)cc3)nnc(NC3CCCN(C)C3)c2cn1 (stereo not shown)', 'IC50', 'nM', 82),
  ('CN1CCC[C@@H](Nc2nnc(-c3ccccc3O)c3c2COCC3)C1', 'IC50', 'nM', 9),
  ('Cc1ccc(-c2nnc(N[C@@H]3CCCN(C)C3)c3c2CCOC3)c(O)c1', 'IC50', 'nM', 2);

a: CN1CCC[C@H](Nc2nnc(-c3ccc(Cl)cc3F)c3ccncc23)C1
b: CN(C)C1CC(Nc2nnc(-c3ccc(Cl)cc3)c3ccccc23)C1 (stereo not shown)
c: CN1C[C@H](F)C[C@@H](Nc2nnc(-c3ccc(Cl)cc3F)c3ccncc23)C1
d: Clc1ccc(-c2nnc(NC3CCCN(Cc4ccccc4)C3)c3ccccc23)cc1 (stereo not shown)
e: F[C@H]1CNC[C@H](Nc2nnc(-c3ccc(Cl)cc3)c3ccncc23)C1
Ask | Hey, quick one: sort these by IC50, low to high? Arrange the labels as the request states and list them.
Reply | d, c, e, a, b

###

Molecular target: UniProt:Q96P20
Assay: IL-1β assay in IFN-γ-differentiated, LPS-primed, ATP-activated THP-1 cells (ELISA)
Assay type: cell-based
Details: 50 ng/mL LPS priming, 2.5 mM ATP activation, 2 hours
Description: Monocytic THP-1 cells (ATCC: TIB-202) are maintained in accordance with the provider's instructions in RPMI media (Life Technologies, Cat #A10491-01); RPMI is supplemented with 10% heat inactivated fetal bovine serum (Hyclone Cat #SH30396.03). […] At the end of the incubation period, 40 μL supernatant is removed, and […] are monitored using an ELISA (Human […], R&D systems, Cat #DY201) in accordance with the manufacturer's instructions. […]
pIC50: −log10 of the molar value.
READOUT KIND: pIC50

Example entries begin here.
INSERT INTO measurements (molecule, tested_on, assay_result) VALUES
  ('Cc1cc(Cl)ccc1-c1nnc(NC2CCCN(C)C2)c2cnccc12 (stereo not shown)', 'UniProt:Q96P20', 6.54),
  ('CO[C@H]1C[C@@H](Nc2nnc(-c3ccc(Cl)cc3)c3ccccc23)C1', 'UniProt:Q96P20', 5.64),
  ('CN1CCCC(Nc2nnc(-c3ccc(C(F)(F)F)nc3)c3ccccc23)C1 (stereo not shown)', 'UniProt:Q96P20', 6.05),
  ('CN1CCCC(Nc2nnc(-c3ccc(C(F)(F)F)cc3)c3ccccc23)C1 (stereo not shown)', 'UniProt:Q96P20', 7.19),
  ('CN1CCc2c(NC3CCCN(C)C3)nnc(-c3ccc(Cl)cc3)c2C1 (stereo not shown)', 'UniProt:Q96P20', 5.69),
  ('CN1C[C@H](F)C[C@@H](Nc2nnc(-c3ccc(F)cc3O)c3c2CCOC3)C1', 'UniProt:Q96P20', 7.49);

I: CN1CCc2c(-c3ccc(Cl)cc3)nnc(NC3CCCN(C)C3)c2C1 (stereo not shown)
II: CN1C[C@H](F)C[C@@H](Nc2nnc(-c3ccccc3O)c3c2CCOC3)C1
III: CN1CCC[C@@H](Nc2nnc(-c3ccc(O)cc3)c3ccncc23)C1
IV: COc1ccc(-c2nnc(N[C@@H]3CCCN(C)C3)c3c2CCOC3)c(O)c1
V: CC12CCC(Nc3nnc(-c4ccc(Cl)cc4)c4ccccc34)(CO1)C2 (stereo not shown)
Ask | # desc sort on pIC50 across 5 molecules Would you mind listing the labels in the order requested?
Reply | IV, II, I, V, III
(IV: 8.52, II: 6.68, I: 6.09, V: 5.43, III: 5.00)

###

target: NLRP3 inflammasome (Homo sapiens, UniProt Q96P20); test: IL-1β assay in IFN-γ-differentiated, LPS-primed, ATP-activated THP-1 cells (ELISA); format: cell-based; settings: 50 ng/mL LPS priming, 2.5 mM ATP activation, 2 hours
pIC50: −log10 of the molar value.
READOUT KIND: pIC50

// worked examples, pIC50 included
INSERT INTO measurements (molecule, readout_kind, assay_result) VALUES
  ('Cc1ccc(-c2nnc(Nc3cccc(O)c3)c3ccccc23)cc1', 'pIC50', 5.95),
  ('CN1CCC[C@@H](Nc2nnc(-c3ccc(C(F)(F)F)cc3)c3ccncc23)C1', 'pIC50', 7.55),
  ('COc1ccc(-c2nnc(NC3CCCN(C)C3)c3cnccc23)cc1 (centres unmarked)', 'pIC50', 7.28);

1: Clc1ccc(-c2nnc(Nc3ccccc3)c3ccccc23)cc1
2: Cc1ccc(-c2nnc(N[C@@H]3C[C@@H](F)CN(C)C3)c3cnccc23)c(O)c1 (relative stereo)
3: Clc1ccc(-c2nnc(NC3CCCN(C4CC4)C3)c3ccccc23)cc1 (centres unmarked)
4: Cc1ccc(-c2nnc(NC34CCC(O)(CC3)C4)c3c2COCC3)c(O)c1
Ask | Output the entries ranked by pIC50 from maximum down to minimum. Please respond by ranking the labels in the order requested.
Reply | 2, 3, 4, 1
(2: 8.52, 3: 7.37, 4: 6.81, 1: 5.65)

1: CN1CC2CCCC(C1)C2Nc1nnc(-c2ccc(Cl)cc2)c2ccccc12 (centres unmarked)
2: COc1ccc(-c2nnc(N[C@@H]3C[C@@H](F)CN(C(C)C)C3)c3ccccc23)cc1
Ask | Which has the higher pIC50, 1 or 2 ? To answer, give the label that identifies your chosen option.
Reply | 2
(2: 7.92, 1: 5.52)

###

target: MDR1 (P-gp) (Homo sapiens); construct: expressed in transfected cells; host or cells: Madin-Darby Canine Kidney (MDCK) cells; assay: MDCK-MDR1 assay (apparent permeability and efflux ratio); type: in vitro ADME; conditions: dog; MDCK-MDR1 monolayer, apical to basolateral, pH 7.4, 60 minutes
Sequence (P08183 whole entry, species assumed): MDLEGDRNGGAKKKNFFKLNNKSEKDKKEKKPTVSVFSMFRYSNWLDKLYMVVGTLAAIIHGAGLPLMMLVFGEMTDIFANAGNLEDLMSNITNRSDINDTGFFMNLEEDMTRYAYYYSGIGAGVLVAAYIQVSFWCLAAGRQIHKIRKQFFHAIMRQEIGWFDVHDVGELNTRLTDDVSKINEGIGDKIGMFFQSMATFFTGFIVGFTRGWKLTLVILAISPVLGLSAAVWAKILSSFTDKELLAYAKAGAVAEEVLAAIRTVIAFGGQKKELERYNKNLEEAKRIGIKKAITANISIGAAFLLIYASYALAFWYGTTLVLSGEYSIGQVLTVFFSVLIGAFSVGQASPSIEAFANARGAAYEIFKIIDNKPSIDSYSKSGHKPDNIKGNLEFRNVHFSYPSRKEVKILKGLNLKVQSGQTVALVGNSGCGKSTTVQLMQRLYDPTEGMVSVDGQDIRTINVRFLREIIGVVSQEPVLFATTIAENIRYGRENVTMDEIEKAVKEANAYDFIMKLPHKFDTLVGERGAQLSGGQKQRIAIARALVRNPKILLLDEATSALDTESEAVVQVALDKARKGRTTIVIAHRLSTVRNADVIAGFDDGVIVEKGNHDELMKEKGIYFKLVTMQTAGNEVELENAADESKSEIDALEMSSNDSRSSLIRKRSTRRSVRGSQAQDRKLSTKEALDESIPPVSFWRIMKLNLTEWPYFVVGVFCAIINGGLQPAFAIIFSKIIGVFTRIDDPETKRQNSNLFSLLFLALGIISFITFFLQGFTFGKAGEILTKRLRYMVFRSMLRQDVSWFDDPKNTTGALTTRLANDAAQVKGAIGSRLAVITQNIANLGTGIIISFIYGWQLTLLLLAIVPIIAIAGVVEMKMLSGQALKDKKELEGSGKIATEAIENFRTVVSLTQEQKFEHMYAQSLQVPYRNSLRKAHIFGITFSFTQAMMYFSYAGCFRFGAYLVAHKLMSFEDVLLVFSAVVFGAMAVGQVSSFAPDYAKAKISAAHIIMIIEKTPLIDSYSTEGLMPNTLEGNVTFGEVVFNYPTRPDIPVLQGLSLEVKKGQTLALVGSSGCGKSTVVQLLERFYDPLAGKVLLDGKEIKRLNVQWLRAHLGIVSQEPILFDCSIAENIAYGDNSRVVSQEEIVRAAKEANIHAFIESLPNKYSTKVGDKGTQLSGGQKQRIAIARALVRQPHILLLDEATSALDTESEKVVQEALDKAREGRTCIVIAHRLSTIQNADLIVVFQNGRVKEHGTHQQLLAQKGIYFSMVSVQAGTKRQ
READOUT KIND: Papp A→B at 60 min, 1 µM (×10⁻⁶ cm/s)

INSERT INTO assay_data (compound, tested_on, readout_kind, assay_result) VALUES
  ('Cc1ccc(-c2nnc(N[C@@H]3CCCN(C)C3)c3c2CCOC3)c(O)c1 [Example 218]', 'MDR1 (P-gp) (Homo sapiens)', 'Papp A→B at 60 min, 1 µM', 1.2),
  ('COc1ccc(-c2nnc(N[C@@H]3CCCN(C)C3)c3c2CCOC3)c(O)c1 [Example 221]', 'MDR1 (P-gp) (Homo sapiens)', 'Papp A→B at 60 min, 1 µM', 1);

I: CN1C[C@H](F)C[C@@H](Nc2nnc(-c3ccc(C4CC4)cc3O)c3c2COCC3)C1 [Example 238]
II: CN1C[C@H](F)C[C@@H](Nc2nnc(-c3ccc(Cl)cc3O)c3c2COCC3)C1 [Example 212]
Ask | Lowest Papp A→B at 60 min, 1 µM? choose I or II Your answer should be the label of the entry you select.
Reply | I
(I: 0.6 ×10⁻⁶ cm/s, II: 2.1 ×10⁻⁶ cm/s)
